Test system: OVCAR-3 ovarian
Assay: NCI-60 one-dose screen, 48 h (100 = growth as untreated, 0 = no growth, -100 = all killed)
Settings: 10 µM unless noted
This is part of a sample that, as a whole, favours compounds with a hit. Of some 83,000 tested, about 20% had one in any assay.
The following compounds are shown together with reported growth values.
Numeric answer only, unit % assumed.

- COMPOUND: "COc1ccc2cc(C(C)C(=O)Nc3ccc(S(=O)(=O)Nc4cc(C)on4)cc3)ccc2c1 (configuration not stated)"
  growth / %: 110

growth for C[C@@H](c1ccc2c(c1)[nH]c1ccc(Cl)cc12)c1nc2ccc(Cl)cc2[nH]1 is 72

growth for CCC(CCCN1C(=O)c2ccccc2C1=O)Nc1cc(OC)cc2c(C)ccnc12 (configuration not stated) is 99.1

growth for N=C(N)N=Nc1ccc(NN=C(N)N)c2ccccc12 is 127

growth for c1ccc(Nc2ccccn2)cc1 is 116

* * *

System: IGROV1 ovarian
Experiment: NCI-60 one-dose screen, 48 h (100 = growth as untreated, 0 = no growth, -100 = all killed)
Conditions: 10 µM unless noted
This is part of a sample that, as a whole, favours compounds with a hit. Of some 83,000 tested, about 20% had one in any assay.
The following molecules are shown together with reported growth values.
Numeric answer only, unit % assumed.

Here's what some known entries look like.
- MOLECULE: "O=C1OC(c2ccc(-c3ccccc3)cc2)=C/C1=C/c1c2ccccc2cc2ccccc12"
  OUTPUT_UNIT: "%"
  READOUT_NUMBER: 101
- MOLECULE: "CCCCCCCCCCCCc1ccc([N+](CC)(CC)CC)cc1"
  OUTPUT_UNIT: "%"
  READOUT_NUMBER: 48.1
- MOLECULE: "COc1ccc(-c2cn3ccnc3c(-c3ccc4ncn(C5CCCCC5)c4c3)n2)cc1"
  OUTPUT_UNIT: "%"
  READOUT_NUMBER: 46.6
- MOLECULE: "COc1ccc(C(=O)N2N=C(c3ccc(Br)cc3)CC2c2cn(-c3ccccc3)nc2-c2ccccc2)cc1 (stereo not given)"
  OUTPUT_UNIT: "%"
  READOUT_NUMBER: 85.2

The record that follows has no growth shown yet.
growth for COC(=O)/C(Br)=C/c1c[nH]c2ccc(Br)cc12 is -17.7

* * *

The following compounds are shown together with reported growth values.
System: MCF7 breast
Assay: NCI-60 one-dose screen, 48 h (100 = growth as untreated, 0 = no growth, -100 = all killed)
Conditions: 10 µM unless noted
About 83,000 compounds went through this panel and 20% of them were active in at least one assay; those are over-represented in the sample as a whole. Activity calls are given as the source filed them. Rule for the calls: active = growth percent below 10; inactive = the rest.

Here's what some known entries look like.
- CPD_SMILES: "CCOC(=O)c1cc(C(=O)c2ccc(Br)cc2)n2cc(C)cc(C)c12"
  growth: "90% (inactive)"
- CPD_SMILES: "COc1cc(-c2nn(-c3ccc(NC(=O)c4cc(Cl)cc(Cl)c4)cc3)cc2-c2ccncc2)ccc1Cl"
  growth: "78% (inactive)"
- CPD_SMILES: "N=C(N)c1ccc(-c2ccc(-c3ccc(Cl)cc3)s2)s1"
  growth: "-66% (active)"
- CPD_SMILES: "CCOc1ccc(Br)cc1/C=C(\\C#N)c1ccc([N+](=O)[O-])cc1"
  growth: "23.4% (inactive)"
- CPD_SMILES: "COC(=O)c1cc(=O)nc(N/N=C/c2ccccc2O)s1"
  growth: "5.18% (active)"

The record that follows has no growth shown yet.
Measured on MCF7 breast, COc1cc(CCNc2cnc3cc(N)cc(N)c3n2)cc(OC)c1 has a documented growth of 96.9% (inactive)

* * *

Test system: HCT-15 colon
Experiment: NCI-60 one-dose screen, 48 h
Conditions: 10 µM unless noted
About 83,000 compounds went through this panel and 20% of them were active in at least one assay; those are over-represented in the sample as a whole. Activity calls are given as the source filed them. Rule for the calls: active = growth percent below 10; inactive = the rest.
Just give me one of these, please: true (active), false (inactive)

Examples from the recorded data:
- MOLECULE: "O=S(=O)(O)CCI"
  TARGET_UNDER_TEST: "HCT-15 colon"
  LABEL_VALUE: "false"
- MOLECULE: "C=CCSc1nnc(COc2ccc3c(C)c(Cc4ccccc4)c(=O)oc3c2C)o1"
  TARGET_UNDER_TEST: "HCT-15 colon"
  LABEL_VALUE: "false"
- MOLECULE: "CC(=O)/C(=C\\c1c(-c2ccccc2)[nH]c2ccccc12)S(=O)(=O)c1ccccc1"
  TARGET_UNDER_TEST: "HCT-15 colon"
  LABEL_VALUE: "false"
- MOLECULE: "COc1nc(OC)nc(-c2cc(C(=O)c3ccc(Br)cc3)n3cc(C)cc(C)c23)n1"
  TARGET_UNDER_TEST: "HCT-15 colon"
  LABEL_VALUE: "false"
- MOLECULE: "CC1(C)N=C(N)N=C(N)N1c1cccc(CCCCOc2ccccc2)c1"
  TARGET_UNDER_TEST: "HCT-15 colon"
  LABEL_VALUE: "false"
- MOLECULE: "COc1ccccc1CNCCCN1C(=O)c2ccc3c4c(ccc(c24)C1=O)C(=O)N(CCCNCc1ccccc1OC)C3=O"
  TARGET_UNDER_TEST: "HCT-15 colon"
  LABEL_VALUE: "true"

[Q] Lab log entry: O=C(/C=C/c1ccc(Br)cc1)c1ccccc1 — outcome as called in the assay?
[A] false

* * *

System: A549/ATCC NSCLC
Test: NCI-60 one-dose screen, 48 h (100 = growth as untreated, 0 = no growth, -100 = all killed)
Settings: 10 µM unless noted
About 83,000 compounds went through this panel and 20% of them were active in at least one assay; those are over-represented in the sample as a whole.
growth strictly less than 80% = Criterion met. Otherwise Criterion not met.

- COMPOUND: "COc1ccc(C2C3(C#N)C(N)=NC(=C(C#N)C#N)C23C#N)cc1OC (stereo unspecified)"
  LABEL_VALUE: "Criterion not met"
- COMPOUND: "COc1cc(OC)cc(-c2ccc(-c3ccc(C(=N)N)cc3)s2)c1"
  LABEL_VALUE: "Criterion met"
- COMPOUND: "C[C@]12C=CC(=O)C=C1[C@@H](F)C[C@@H]1[C@@H]2[C@@H](O)C[C@@]2(C)[C@H]1CC[C@]2(O)C(=O)CO"
  LABEL_VALUE: "Criterion met"
- COMPOUND: "COc1cc(-c2nc(/C=C3/C(=O)Nc4ccccc43)c3ccccn23)cc(OC)c1OC"
  LABEL_VALUE: "Criterion met"
- COMPOUND: "Clc1ccc(N/N=C(\\c2ccccc2)c2ccccn2)nc1"
  LABEL_VALUE: "Criterion met"
- COMPOUND: "O=C(Cc1ccccc1[N+](=O)[O-])c1ccc2c(c1)OCO2"
  LABEL_VALUE: "Criterion not met"
- COMPOUND: "CCN(CC)c1ccc2nc3ccc(N=Nc4ccc(O)cc4)cc3[n+](-c3ccccc3)c2c1"
  LABEL_VALUE: "Criterion met"
- COMPOUND: "O=C(Oc1ccccc1)c1ccccc1Cl"
  LABEL_VALUE: "Criterion not met"

[Q] Report whether reported growth is lower than 80% (strictly) for FC(F)(F)c1cccc(-c2[nH]ncc2-c2nnnn2-c2ccccc2)c1
[A] Criterion met

[Q] Report whether reported growth is lower than 80% (strictly) for Nc1nc2c(c3cnccc13)C(c1cccc(Cl)c1)Cc1cnccc1-2 (stereo unspecified)
[A] Criterion met

[Q] Report whether reported growth is lower than 80% (strictly) for CC[n+]1c(C)ccc2cc(C)ccc21
[A] Criterion met

[Q] Report whether reported growth is lower than 80% (strictly) for O=c1c(N=Nc2nccs2)c(-c2ccccc2)[nH]n1-c1nc(-c2ccccc2)cs1
[A] Criterion met

* * *

System: MCF7 breast
Test: NCI-60 one-dose screen, 48 h (100 = growth as untreated, 0 = no growth, -100 = all killed)
Conditions: 10 µM unless noted
Compounds without any hit were thinned out: in the full panel of roughly 83,000, 20% have a hit. Calls of active or inactive are those of the source. How the source made its calls: active means growth percent below 10; inactive means the rest.
The following compounds are shown together with reported growth values.

Here's what some known entries look like.
- COMPOUND: "Cc1c(Cc2ccccc2)c(=O)oc2c(C)c(OCC(=O)n3nc(C#N)cc3N)ccc12"
  growth: "89.7% (inactive)"
- COMPOUND: "N=C(N)N=Nc1ccc(NN=C(N)N)c2ccccc12"
  growth: "97.4% (inactive)"

growth for C/C(=N\Nc1cccc(Cl)n1)c1ccccn1 is 10.1% (inactive)

growth for [N-]=[N+]=Nc1ncc(-c2ccc(C(F)(F)F)cc2)c(NC2CCCCCC2)n1 is 16.3% [100 µM] (inactive)

growth for COC(=O)[C@H](Cc1cn(C)cn1)NC(=O)[C@H](Cc1c[nH]c2ccccc12)NC(=O)Nc1cc(C(F)(F)F)cc(C(F)(F)F)c1 is -58.6% [100 µM] (active)

growth for CC(C)CSc1nc(-c2ccc(F)cc2)c(C#N)c(N2CCCCC2)n1 is 83% (inactive)

growth for O=c1[nH]c2cc(O)ccc2n2cc3c(F)cccc3c12 is -3.3% (active)

growth for c1cc[c]([Bi]([c]2ccccc2)[c]2ccccc2)cc1 is 97.5% (inactive)
